System: HS 578T breast
Assay remarks: NCI tumour cell line growth inhibition, 48 h
Test readout: GI50

Nc1ccn(C=C=CCO)c(=O)n1; > 1000 µM

Okay, now this compound:
In: What does the data say about its GI50? Entry: "COc1ccc(/C=C2\CN(C(=O)CCN3CCC(=NO)CC3)C/C(=C\c3ccc(OC)cc3)C2=O)cc1"
Out: 3.64 µM

* * *

Listing of entries alongside the reported TGI.
System: HT29 colon
Assay remarks: NCI tumour cell line growth inhibition, 48 h
The reply should contain only the number, in µM.

Previously resolved entries follow.
CN(C)CCOc1ccc(I)cc1Cc1ccccc1; 17
O/N=C1/C(=C/c2ccc(F)cc2)CCCC1C(NO)c1ccc(F)cc1 (stereo unspecified); 45.2

In: What does the data say about its TGI? Entry: CC(=O)OCCC1c2ccccc2-n2nc(-c3ccccc3)c(O)c21 (stereo unspecified)
Out: 42.4

In: // query: O=C(CCCc1c[nH]c2ccccc12)NC1CC(=O)c2c(Br)sc(Br)c21 (stereo unspecified)
Out: 22

In: // query: "CCOC(=O)c1cnc(SCc2ccc(Cl)c(Cl)c2)nc1N1CC1"
Out: 12.2

* * *

System: MALME-3M melanoma
Assay remarks: NCI tumour cell line growth inhibition, 48 h
Listing of entries alongside the reported TGI.
The reply should contain only the number, in µM.

O=[N+]([O-])c1ccc(Sc2ncccn2)c([N+](=O)[O-])c1; 4.72

In: # query: TGI | item "COc1ccc(/C=C2\CN(C(=O)CCN3CCC(=NO)CC3)C/C(=C\c3ccc(OC)cc3)C2=O)cc1" | system: MALME-3M melanoma
Out: 7.49

In: // query: CC(=O)Oc1ccc(N2C(=O)C3c4[nH]c5ccccc5c4C4CCC(C(C)(C)C)CC4C3C2=O)cc1 (stereo not given)
Out: 19.4

* * *

Tested on: A498 renal
Assay remarks: NCI tumour cell line growth inhibition, 48 h; in the data active = GI50 below about 0.43 µM; inactive = the rest
# valid calls are true for active, false for inactive; nothing else

Nc1cccc2c1C(=O)N(C1CCC(=O)NC1=O)C2=O (configuration not stated); false

In: Per the assay record, what outcome was assigned to "COc1cc2c3c(n(C)c(=O)c2cc1OC)-c1cc2c(cc1/C3=C\CCCCN)OCO2" ?
Out: false

In: // query: C1CCC([PH+](C2CCCCC2)C2CCCCC2[PH+](C2CCCCC2)C2CCCCC2)CC1.[Au].[CH-]1CCCCC1C1CCCC[N-]1 (configuration not stated)
Out: true

In: // query: "CCOC(=O)c1cnc(SCc2ccc(Cl)c(Cl)c2)nc1N1CC1"
Out: false

In: // query: "COc1ccc(/C=C2\CN(C(=O)CCN3CCC(=NO)CC3)C/C(=C\c3ccc(OC)cc3)C2=O)cc1"
Out: false

In: // query: "O=C1c2cc3c(cc2-c2c1c1cc(Cl)c(Cl)cc1c(=O)n2CCCn1ccnc1)OCO3"
Out: true

In: // query: "COc1ccc(N(C)c2nc(C)nc3ccccc23)cc1"
Out: true

* * *

Tested on: COLO 205 colon
Assay remarks: NCI tumour cell line growth inhibition, 48 h; in the data active = GI50 below about 0.43 µM; inactive = the rest
# valid calls are Yes for active, No for inactive; nothing else

Use the examples below as a reference point.
Cc1cc2c(C)c3cc(C)c(N)cc3nc2cc1N; No
CCCCCCCCCCCCCCCCCCNC(=O)[C@H]1CSC(c2ccc(OC)c(F)c2)N1 (stereo partly specified); No
CC1(C)N=C(N)N=C(N)N1c1cccc(/C=C/C=C/c2cccc([N+](=O)[O-])c2)c1; No
O=C(Nc1n[nH]c2nc(-c3ccco3)c(Br)cc12)C1CC1; No
COc1ccc(N(C)c2nc(C)nc3ccccc23)cc1; Yes
O=[N+]([O-])c1ccc(N/N=C\c2cc(Cl)ccc2O)nc1; No

In: Per the assay record, what outcome was assigned to CCOC(=O)CCC(NC(=O)c1ccc(N=Cc2nc3cc(C(F)(F)F)ccc3nc2-c2ccccc2)cc1)C(=O)OCC (stereo unspecified) ?
Out: No

In: // query: "CC(=O)c1ccc(Nc2cc(-n3ccnc3)nc3ccccc23)cc1"
Out: No

In: // query: "OB([O][Hg][c]1ccccc1)[O][Hg][c]1ccccc1"
Out: No

In: // query: "O=C(c1cccs1)c1c(C(F)(F)F)n([O-])c2ccc(C(F)(F)F)cc2[n+]1=O"
Out: Yes

In: // query: "COc1ccc(/C(=C/c2cc(OC)c(OC)c(OC)c2)[N+](=O)[O-])cc1"
Out: No

In: // query: "O/N=C1\CCc2cc(-c3nc(C4CCNCC4)[nH]c3-c3ccncc3)ccc21"
Out: No

In: // query: "O=C1/C(=C\c2ccc(Cl)cc2)CN(C(=S)Nc2ccccc2)C/C1=C\c1ccc(Cl)cc1"
Out: No

In: // query: "C[C@H]1[C@H](OC(=O)CCC(=O)O)O[C@@H]2O[C@]3(C)CC[C@H]4[C@H](C)CC[C@@H]1[C@@]24OO3"
Out: Yes

In: // query: "COc1ccc(-c2cc(-c3ccc(Nc4nc(Nc5ccc(Cl)cc5)nc(Nc5ccc(Cl)cc5)n4)cc3)nc(N)c2C#N)cc1"
Out: No

In: // query: CC12OC(C(=O)C13CC3)C1C(=O)c3ccccc3C(=O)C12 (stereo unspecified)
Out: No
